# Run description: recombinant UMI read abundance after kanamycin selection (control-corrected) (log10(CPM+1)); higher = more efficient recombination; extreme values may be limits of the assay; sequences stand for … in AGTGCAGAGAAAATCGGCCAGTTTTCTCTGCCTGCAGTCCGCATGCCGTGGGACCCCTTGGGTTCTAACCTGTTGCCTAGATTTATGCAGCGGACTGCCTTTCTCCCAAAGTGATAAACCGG…AGGTTGGTTTCACT; site = the 11-nt donor;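 also: IS621 bridge recombinase in Escherichia coli cells against a fixed T5 target plasmid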
Assign recombinant UMI read abundance (log10) to each entry below.
Answers are plain numbers.

polymer_sequence="GCGTACCCATGGACCGGTTTTCCCGGTAATCCGTATTTGAG (site GCGTACCCTCT)" measure="recombinant UMI read abundance (log10)" val=0.023
polymer_sequence="CCCTACTCATGGACCGGTTTTCCCGGTAATCCGTATTTGGG (site CCCTGCTCTCC)" measure="recombinant UMI read abundance (log10)" val=0.0112
polymer_sequence="GACAAACCATGGACCGGTTTTCCCGGTAATCCGTATTTGGT (site AACAAACCTAC)" measure="recombinant UMI read abundance (log10)" val=0
polymer_sequence="CACGGCACATGGACCGGTTTTCCCGGTAATCCGTATTTGTT (site CACGGCTCTAA)" measure="recombinant UMI read abundance (log10)" val=0.746

// query recombinant UMI read abundance (log10) value for entry CGGTTCCCATGGACCGGTTTTCCCGGTAATCCGTATTTGTG (site CGGTTCCCTCA)
0.0387

Data origin: the supplement of paper PMC11208160
